- target of assay: hA2AAR (Homo sapiens, UniProt P29274)
- Construct: expressed in transfected cells; host or cells: HeLa (HeLa-A2A) cell membranes
- Sequence (P29274 whole entry): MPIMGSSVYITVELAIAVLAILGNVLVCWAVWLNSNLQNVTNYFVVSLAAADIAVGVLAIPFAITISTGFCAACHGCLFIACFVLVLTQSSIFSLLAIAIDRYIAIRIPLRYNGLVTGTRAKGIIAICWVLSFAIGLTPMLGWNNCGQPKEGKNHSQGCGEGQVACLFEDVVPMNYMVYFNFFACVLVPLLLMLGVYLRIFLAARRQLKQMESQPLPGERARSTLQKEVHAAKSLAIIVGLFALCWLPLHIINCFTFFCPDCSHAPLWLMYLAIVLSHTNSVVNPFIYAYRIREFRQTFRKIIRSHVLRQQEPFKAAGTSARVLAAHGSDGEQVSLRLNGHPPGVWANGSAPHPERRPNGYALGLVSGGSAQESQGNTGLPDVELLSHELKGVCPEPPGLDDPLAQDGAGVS
- measurement notes: Radioligand binding competition, [3H]ZM241385, membranes from HeLa-A2A cells
- condition info: 1 μM, [3H]ZM241385, human HeLa cells, n = 2
- Procedure: All ligands reported in Tables 1–5 were obtained and tested as racemic mixtures. The whole set was evaluated in silico with a combination of a Rdkit[37] […] A brief description is given below. […] Non-specific binding was determined in the presence of 10 μM R-PIA. […] Non-specific binding was determined in the presence of 100 μM R-PIA. […] After the incubation time, membranes were washed and filtered and radioactivity was detected in a MicroBeta TriLux reader (PerkinElmer).
Parameter threshold = 10%. Response is Condition met when % at 1 μM hA2A (percentage displacement of specific binding) meets or exceeds it, else Condition not met.

# check: % at 1 μM hA2A (percentage displacement of specific binding) of CCOC(=O)C1=C(C)Nc2nc3cc(Cl)ccc3n2C1c1cocn1 (stereo not shown) [18c] is greater than or equal to 10% Condition met

Record CC1=C(C(=O)OC(C)C)C(c2ccsc2)n2c(nc3cc(Cl)ccc32)N1 (stereo not shown) [16p] ; criterion: % at 1 μM hA2A (percentage displacement of specific binding) no lower than 10%. Met? Condition not met

Threshold query (% at 1 μM hA2A (percentage displacement of specific binding) >= 10%) on CC1=C(C(=O)OC(C)C)C(c2ccco2)n2c(nc3ccc(Cl)cc32)N1 (stereo not shown) [15j] Condition met

Decide: is the reported value of % at 1 μM hA2A (percentage displacement of specific binding) for CC1=C(C(=O)OC(C)C)C(c2cocn2)n2c(nc3cc(Cl)ccc32)N1 (stereo not shown) [18d] equal to or greater than 10%? Condition met

Hi team, for CCOC(=O)C1=C(C)Nc2nc3cc(Br)ccc3n2C1c1ccoc1 (stereo not shown) [16s] , is the recorded % at 1 μM hA2A (percentage displacement of specific binding) at or above 10%? Condition met

Others:
Hello, I need to know if CC1=C(C(=O)OC(C)C)C(c2cccs2)n2c(nc3ccc(F)cc32)N1 (stereo not shown) [15f] has measured % at 1 μM hA2A (percentage displacement of specific binding) not below 10%. Thanks! Condition not met

Decide: % at 1 μM hA2A (percentage displacement of specific binding) of CC1=C(C(=O)OC(C)C)C(c2ccco2)n2c(nc3cc(F)ccc32)N1 (stereo not shown) [16b] >= 10%? Condition not met

Reported % at 1 μM hA2A (percentage displacement of specific binding) reaches at least 10% for CCOC(=O)C1=C(C)Nc2nc3cc(Br)c(Br)cc3n2C1c1ccoc1 (stereo not shown) [14s] ? Condition not met

Quick check, % at 1 μM hA2A (percentage displacement of specific binding) >= 10%? CC1=C(C(=O)OC(C)C)C(c2ccsc2)n2c(nc3ccc(Br)cc32)N1 (stereo not shown) [15x] Condition not met

Is it the case that CCOC(=O)C1=C(C)Nc2nc3cc(Br)c(Br)cc3n2C1c1ccco1 (stereo not shown) [14q] has % at 1 μM hA2A (percentage displacement of specific binding) reaching or exceeding 10%? Condition met
